Test system: HL-60(TB) leukemia
Tick one outcome: t (active), f (inactive)

ClCCn1cnc2c(SCc3ccccc3)ncnc21	f

Field: outcome | Entry: O=C(N/N=C/c1ccc(F)cc1)c1[nH]c2ccc(I)cc2c1-c1ccccc1
t

Field: outcome | Entry: COC(=O)c1ccc2c(c1)c1c(C)c3cnccc3c(C)c1n2C
t

Field: outcome | Entry: [Cl][Sn]([c]1ccccc1)[c]1ccccc1
f

Field: outcome | Entry: CN(C)CCNc1cccc2sc3ccc(O)cc3c(=O)c12
f

Field: outcome | Entry: CC1=CC[C@@H]2C(C)(C)[C@@H](O)CC[C@@]2(C)[C@@H]1COc1ccc2ccc(=O)oc2c1
f

Field: outcome | Entry: NCCCCCCNc1cc(-c2cccc(OC(F)(F)F)c2)nc2ccc(N3CCCC3)cc12
f

Field: outcome | Entry: Cc1ccc2c(c1)sc(-c1ccc(N(C)C)cc1)[n+]2C
t

---

Reported TGI is given for each of the following molecules.
Tested on: SK-MEL-28 melanoma
Assay: NCI tumour cell line growth inhibition, 48 h

Answered cases to consult:
CC/C=C\C[C@H](O)C/C=C1/C(=O)C=C[C@@H]1C/C=C\CCCC(N)=O	4.26 µM
COc1ccc([N+](=O)[O-])c2c(NCC(O)CO)ccnc12 (configuration not stated)	> 100 µM
C=C1C(=O)O[C@H]2[C@H]1CC/C(COC(=O)c1ccc(C(=O)O)s1)=C\CC[C@@]1(C)O[C@@H]21	4.83 µM
CCCCS(=N)(=O)CC[C@H](N)C(=O)O (some centres not stated)	> 10000 µM
c1c[nH]c(Cc2ncc(Cc3cnc[nH]3)[nH]2)n1	> 100 µM

Request: TGI, test system SK-MEL-28 melanoma, entry OC1CCC(Oc2cccc3cnc(Nc4ccc5nc[nH]c5c4)nc23)CC1 (configuration not stated)
6.83 µM

---

Test system: TK-10 renal
Experiment: NCI tumour cell line growth inhibition, 48 h
readout: TGI

Answered cases to consult:
O=C(O)C(Cc1ccc(O)c([N+](=O)[O-])c1)N1C(=O)c2ccccc2C1=O (stereo not drawn)	> 100 µM
CCOC(=O)/C=C(/CN1C(=O)c2ccccc2C1=O)c1ccccc1	> 100 µM

Now take the following compound into account.
Please give the measured TGI for this compound: O=C1CC(c2cccc(Cl)c2)n2cccc21 (stereo not drawn)
> 100 µM

---

System: 786-0 renal
Experiment: NCI tumour cell line growth inhibition, 48 h
readout: TGI

Answered cases to consult:
COc1ccc(/C=[N+](\[O-])[C@H](COCc2ccccc2)c2ccccc2)cc1	> 100 µM
NC(=O)c1ccccc1NC(=O)C(=O)C(c1cnc2ccc([N+](=O)[O-])cc2n1)[N+](=O)[O-] (stereo not drawn)	> 100 µM
COc1ccc2c(C3(O)CCNCC3)c[nH]c2c1	> 100 µM
O=C1/C(=C\c2cccs2)Oc2ccccc21	> 100 µM
COc1cc(C2c3cc4c(cc3OC(N3CCOCC3)C2C)OCO4)cc(OC)c1O (stereo not drawn)	> 50.4 µM

Please give the measured TGI for this compound: COc1ccc(CNc2nc3ccccc3nc2-c2cccs2)cc1
> 100 µM

Please give the measured TGI for this compound: O=C1Cc2c(-c3ccccc3)cc(-c3cccc(Cl)c3)nc2-c2ccccc2N1
2.42 µM

Please give the measured TGI for this compound: CN(C)CN1C(=O)S/C(=C2\C(=O)N(CN(C)C)c3ccccc32)C1=O
> 100 µM

---

System: MOLT-4 leukemia
Test: NCI tumour cell line growth inhibition, 48 h
Reported TGI is given for each of the following compounds.

Answered cases to consult:
CCc1cccc(C)c1NC(=O)CC1Sc2ccccc2NC1=O (stereo unspecified)	> 100 µM
CC(C)n1c(=O)c2nn3c(=O)n(C(C)C)c(=O)c3nn2c1=O	> 100 µM
O=c1c(OC/C(=N/O)c2ccccc2)c(-c2ccccc2)oc2ccccc12	> 50 µM
O=C1CC(c2cccc(Cl)c2)n2cccc21 (stereo unspecified)	> 100 µM
O=C(O)C(Cc1ccc(O)c([N+](=O)[O-])c1)N1C(=O)c2ccccc2C1=O (stereo unspecified)	> 100 µM

Please give the measured TGI for this compound: COc1cccc2c1C1=CC(=O)CCC1C(C)(C)O2 (stereo unspecified)
> 100 µM

Please give the measured TGI for this compound: Cc1ccc(S(=O)(=O)NCCN2c3nc4ccccc4cc3Sc3cc4ccccc4nc32)cc1
> 100 µM

Please give the measured TGI for this compound: c1cc2c(cnc3cscc32)s1
> 100 µM

Please give the measured TGI for this compound: Cc1c(C(=O)CC(=O)C(=O)NC2C3CC4CC(C3)CC2C4)[n+](=O)c2ccccc2n1[O-] (stereo unspecified)
> 100 µM

Please give the measured TGI for this compound: Cc1nn(-c2ccccc2)c(C)c1/C=N/NC(=O)c1sc(=S)n(-c2ccccc2)c1N
> 100 µM

Please give the measured TGI for this compound: Cn1c(=O)c2c(nc3n2CCC(=O)N3)n(C)c1=O
> 100 µM

---

Reported TGI is given for each of the following compounds.
System: SR leukemia
Test: NCI tumour cell line growth inhibition, 48 h
Where a SMILES comes first, the peptide text is derived from it. The star is where a group is joined. Boc = CC(C)(C)OC(=O)*

Answered cases to consult:
CCCCCCCCOCC1S(=O)(=O)OCCOS1(=O)=O	> 100 µM
CC1(C)CCOC(=O)C(Cl)CC1Cl (stereo not drawn)	> 100 µM
COc1ccc([N+](=O)[O-])c2c(NCC(O)CO)ccnc12 (stereo not drawn)	> 100 µM

Please give the measured TGI for this compound: C=C1C(O)C2C(=C(CC(C)C)C13CC3)C(=O)C(C)(C)C2OC (stereo not drawn)
> 100 µM

Please give the measured TGI for this compound: CCCCc1cc(O)ccc1O
> 100 µM

Please give the measured TGI for this compound: c1ccc(N=NNNc2ccc(-c3nc4ccccc4[nH]3)cc2)cc1
> 100 µM

Please give the measured TGI for this compound: CCOC(=O)/C=C/c1ccc(C(=O)OCC)[nH]1
> 100 µM

Please give the measured TGI for this compound: CC(NC(=O)C(NC(=O)OC(C)(C)C)C(C)C)C(=O)NCC(=O)O (stereo not drawn) (Boc-Val-Ala-Gly-OH; configuration not given here)
> 100 µM

---

Tested on: RXF 393 renal
Assay: NCI tumour cell line growth inhibition, 48 h
Reported TGI is given for each of the following compounds.

O=C1CC(c2cccc(Cl)c2)n2cccc21 (stereo unspecified)	> 100 µM
CN(C)CCNc1cccc2sc3ccc(O)cc3c(=O)c12	7.38 µM
C/C(=N/O)c1cccc(Nc2nc3ccccc3c3[nH]c4ccccc4c23)c1	4.59 µM
O=c1c(OC/C(=N/O)c2ccccc2)c(-c2ccccc2)oc2ccccc12	> 50 µM
CCN(CC)C(=O)CCCCCCCCC1CO1 (stereo unspecified)	> 100 µM

Now take the following compound into account.
Please give the measured TGI for this compound: O=C(O)C(Cc1cccs1)C(=O)O
> 100 µM

---

System: PC-3 prostate
Test: NCI tumour cell line growth inhibition, 48 h
Reported TGI is given for each of the following compounds.

Answered cases to consult:
Fc1cccc2nc(-c3ccccc3)cc(OCc3ccccc3)c12	> 100 µM
CC1(C)CCOC(=O)C(Cl)CC1Cl (stereo not given)	> 100 µM
O=C1NC(=O)C(c2ccccc2Cl)=C1Nc1cccc(O)c1	> 25 µM
COc1ccc(CN=CN/C(C#N)=C(\N)C#N)cc1OC	> 100 µM

Now take the following compound into account.
Please give the measured TGI for this compound: CCCCCCCCOCC1S(=O)(=O)OCCOS1(=O)=O
> 100 µM

---

Reported TGI is given for each of the following compounds.
Tested on: SK-MEL-28 melanoma
Assay: NCI tumour cell line growth inhibition, 48 h

Answered cases to consult:
CC(C)(C)N=CN1CCC(C(c2ccccc2)c2ccccc2)CC1	> 100 µM
ClCCn1cnc2c(SCc3ccccc3)ncnc21	> 100 µM

Now take the following compound into account.
Please give the measured TGI for this compound: C=CCN(N=O)C(=O)N(CCC)CCCC(NC(C)=O)C(=O)NCc1ccccc1 (stereo not drawn)
> 100 µM

---

Reported TGI is given for each of the following compounds.
Test system: SK-OV-3 ovarian
Assay: NCI tumour cell line growth inhibition, 48 h

Answered cases to consult:
Cn1c2ccccc2n2c3nc4ccccc4nc3c(C#N)c12	> 100 µM
OC1CN=C2c3ccccc3C(O)(c3ccc(Cl)cc3)N2C1 (stereo not drawn)	> 100 µM

Now take the following compound into account.
Please give the measured TGI for this compound: ClCCn1cnc2c(SCc3ccccc3)ncnc21
> 100 µM

---

Reported TGI is given for each of the following compounds.
Tested on: SK-OV-3 ovarian
Experiment: NCI tumour cell line growth inhibition, 48 h

CCCCCC(C)C[C@H]1CO[C@H](c2ccc[nH]2)N[C@H]1C(=O)OC (some centres not stated)	> 100 µM
CCCCCc1c(CCCC)c(=O)[nH]c2cc(CNCC(OC)OC)ccc12	32.3 µM
NS(=O)(=O)c1ccc(/C=C/c2cccc(O)c2)cc1	> 100 µM
c1ccc(N=NNNc2ccc(-c3nc4ccccc4[nH]3)cc2)cc1	> 100 µM
O=C(/C=C/c1ccc([N+](=O)[O-])o1)NNC(=O)c1cc2ccccc2cc1O	> 100 µM
O=Nc1c2cccnc2n2nnc3ccc(Cl)cc3c12	20.4 µM
CC1(C)CCOC(=O)C(Cl)CC1Cl (configuration not stated)	> 100 µM
Clc1ccc(-c2nc(-c3ccc(Cl)cc3)[s+]s2)cc1	> 100 µM

Please give the measured TGI for this compound: CCCCS(=N)(=O)CC[C@H](N)C(=O)O (some centres not stated)
> 10000 µM

Please give the measured TGI for this compound: CCCCCCCCCC[C@@H](O)[C@@H]1CC[C@@H]([C@@H]2CC[C@@H]([C@@H](O)CCCCCCCCCCC(O)CC3=CC(C)OC3=O)O2)O1 (some centres not stated)
> 10 µM

Please give the measured TGI for this compound: C=C1C(O)C2C(=C(CC(C)C)C13CC3)C(=O)C(C)(C)C2OC (configuration not stated)
> 100 µM

Please give the measured TGI for this compound: COC(=O)/C=C1/OC(c2ccccc2)=C(Cl)C1=O
> 100 µM

Please give the measured TGI for this compound: CN(C)c1ccc(/C=C2\N=C(c3ccccc3)N(c3nc4c(Cl)cc(Cl)cc4s3)C2=O)cc1
> 100 µM

Please give the measured TGI for this compound: O=C(N=Nc1c(O)[nH]c2ccccc12)c1ccccc1O
46.6 µM

Please give the measured TGI for this compound: Cc1cc2ccccc2c[n+]1CC(=O)CC([O-])(C(F)(F)F)C(F)(F)F
> 100 µM

Please give the measured TGI for this compound: Cc1ccc(-c2cc3nc(-c4ccccc4)nc(C(Cl)Cl)n3n2)cc1
18.6 µM

Please give the measured TGI for this compound: CC(NC(=O)c1ccc(OP(=O)(OCC2=CC(=O)c3ccccc3C2=O)N(C)CCCCCl)cc1)c1ccc(OCC2CCCCC2)c(C(N)=O)c1 (configuration not stated)
48.8 µM
